FYI, the data here is from patent US20200024330A1.

Field: IC50 (µg/mL), pseudovirus neutralization. Provide a value for each of the binders that follow.
# EXPERIMENTAL_SYSTEM: HIV-1 Env of isolate MGRM-A-010 (HIV-1)
# METHOD_SUMMARY: cell-based or functional assay
Your answer should be a plain number; it is taken to be in µg/mL.

input: # get_value(readout='IC50 (µg/mL), pseudovirus neutralization', item= PGT-125 (antibody, V domains shown) VH: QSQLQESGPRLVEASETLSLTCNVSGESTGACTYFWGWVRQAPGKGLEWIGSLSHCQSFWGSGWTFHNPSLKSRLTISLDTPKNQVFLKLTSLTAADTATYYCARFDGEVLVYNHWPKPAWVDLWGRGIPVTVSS VL: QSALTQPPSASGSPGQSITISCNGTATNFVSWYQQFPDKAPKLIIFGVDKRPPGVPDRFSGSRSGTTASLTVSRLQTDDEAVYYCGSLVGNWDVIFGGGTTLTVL )
output: 0.004

input: What do you have for PGT-127 (antibody, V domains shown) VH: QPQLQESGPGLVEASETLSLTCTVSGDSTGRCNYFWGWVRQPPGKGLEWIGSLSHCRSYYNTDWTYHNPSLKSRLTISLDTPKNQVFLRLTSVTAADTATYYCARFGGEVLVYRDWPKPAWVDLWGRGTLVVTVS VL: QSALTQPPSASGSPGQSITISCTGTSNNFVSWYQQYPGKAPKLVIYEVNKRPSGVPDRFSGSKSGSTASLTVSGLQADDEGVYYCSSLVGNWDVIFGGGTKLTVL ?
output: 0.017

input: Also need PGT-123 (antibody, V domains shown) VH: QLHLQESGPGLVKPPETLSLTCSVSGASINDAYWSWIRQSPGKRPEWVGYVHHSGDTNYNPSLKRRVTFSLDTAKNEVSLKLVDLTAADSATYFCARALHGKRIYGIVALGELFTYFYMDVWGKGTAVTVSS VL: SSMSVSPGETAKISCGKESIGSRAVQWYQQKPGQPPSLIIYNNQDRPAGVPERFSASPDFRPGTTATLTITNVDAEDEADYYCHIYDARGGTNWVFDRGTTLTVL , thanks.
output: 0.705

input: Follow-up entry: PGT-126 (antibody, V domains shown) VH: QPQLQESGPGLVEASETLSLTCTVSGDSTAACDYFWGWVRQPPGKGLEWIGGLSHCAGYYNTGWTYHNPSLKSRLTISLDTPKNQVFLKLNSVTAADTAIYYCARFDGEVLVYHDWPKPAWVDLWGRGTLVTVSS VL: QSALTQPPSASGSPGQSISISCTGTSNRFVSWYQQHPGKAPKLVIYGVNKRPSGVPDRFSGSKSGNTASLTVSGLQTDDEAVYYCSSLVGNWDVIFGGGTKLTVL
output: 0.002
